Experiment: inhibitors of hydroxyurea-induced Chk1 phosphorylation, primary screen, imaging, HeLa, phospho-Chk1 antibody, percent positive cells (AID 1186)
Details: hydroxyurea-induced phospho-Chk1 immunofluorescence imaging, higher = more signal
The source made the active and inactive calls. No rule for the calls is given here.
property label: z-score

• C=CCOC(=O)[C@@H]1[C@H]2C(=O)O[C@H](c3ccccc3)[C@H](c3ccccc3)N2[C@H](c2ccc(OCCOC(=O)[C@H]3C[C@H]4C(=O)N5CCC[C@H]5C(=O)N4[C@H]3c3ccc(O)cc3)cc2)[C@@]12C(=O)Nc1ccc(I)cc12 = -0.0415 (inactive)
• NC(=O)NCC#Cc1ccc2c(c1)[C@]1(C(=O)N2)[C@H](C(N)=O)[C@H]2C(=O)O[C@H](c3ccccc3)[C@H](c3ccccc3)N2[C@@H]1c1ccc(O)cc1 = 0.0619 (inactive)
• O=C1C[C@]2(c3ccc([N+](=O)[O-])cc3)C(=O)N(CC(F)(F)F)c3cc(CO)ccc3[C@H]2N1C1CCCCC1 = -0.219 (inactive)
• Cc1ccc(S[C@]2(C(=O)NC3CC3)CC(=O)N(Cc3ccccc3)[C@@H]2c2ccc(CO)cc2I)cc1 = 0.327 (inactive)
• O=C1C[C@@](C(=O)NC2CC2)(c2ccc([N+](=O)[O-])cc2)[C@@H](c2ccc(CO)cc2I)N1C1CCCCC1 = -0.254 (inactive)
